- target of assay: T1, GST-tagged AIM2 (Invitrogen) (UniProt O14862 1-343)
- T1 sequence (looked up): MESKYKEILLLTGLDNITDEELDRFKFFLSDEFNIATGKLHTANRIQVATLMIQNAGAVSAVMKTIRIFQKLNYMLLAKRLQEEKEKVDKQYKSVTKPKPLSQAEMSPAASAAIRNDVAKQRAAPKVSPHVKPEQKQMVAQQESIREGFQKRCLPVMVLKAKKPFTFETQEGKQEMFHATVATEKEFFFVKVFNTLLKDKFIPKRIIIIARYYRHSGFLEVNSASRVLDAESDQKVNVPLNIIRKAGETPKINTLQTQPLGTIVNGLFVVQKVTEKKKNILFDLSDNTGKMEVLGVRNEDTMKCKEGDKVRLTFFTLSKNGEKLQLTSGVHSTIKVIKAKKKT
- measurement notes: BLI
measure: koff

1) Recombinant HMGB1 (disulfide HMGB1, not treated with DTT) (natural protein, human, UniProt P09429 1-215, looked up, disulfide bond between cysteines 23 and 45 (the paper calls the protein without DTT disulfide HMGB1)) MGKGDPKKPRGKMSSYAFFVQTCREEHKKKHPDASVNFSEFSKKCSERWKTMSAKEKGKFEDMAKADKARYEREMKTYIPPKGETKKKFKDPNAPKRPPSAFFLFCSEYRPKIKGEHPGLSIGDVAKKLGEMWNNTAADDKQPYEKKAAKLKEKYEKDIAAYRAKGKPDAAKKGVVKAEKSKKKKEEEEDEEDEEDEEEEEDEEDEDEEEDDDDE
0.00034 s⁻¹
2) Recombinant HMGB1(C23S) (natural protein, human, UniProt P09429 1-215, looked up) MGKGDPKKPRGKMSSYAFFVQTSREEHKKKHPDASVNFSEFSKKCSERWKTMSAKEKGKFEDMAKADKARYEREMKTYIPPKGETKKKFKDPNAPKRPPSAFFLFCSEYRPKIKGEHPGLSIGDVAKKLGEMWNNTAADDKQPYEKKAAKLKEKYEKDIAAYRAKGKPDAAKKGVVKAEKSKKKKEEEEDEEDEEDEEEEEDEEDEDEEEDDDDE
0.0003 s⁻¹
3) Recombinant HMGB1(C45S) (natural protein, human, UniProt P09429 1-215, looked up) MGKGDPKKPRGKMSSYAFFVQTCREEHKKKHPDASVNFSEFSKKSSERWKTMSAKEKGKFEDMAKADKARYEREMKTYIPPKGETKKKFKDPNAPKRPPSAFFLFCSEYRPKIKGEHPGLSIGDVAKKLGEMWNNTAADDKQPYEKKAAKLKEKYEKDIAAYRAKGKPDAAKKGVVKAEKSKKKKEEEEDEEDEEDEEEEEDEEDEDEEEDDDDE
0.00036 s⁻¹
4) Recombinant HMGB1 A box (disulfide form, not treated with DTT) (domain or fragment, disulfide form (the paper calls the A box without DTT its disulfide form)) MGKGDPKKPRGKMSSYAFFVQTCREEHKKKHPDASVNFSEFSKKCSERWKTMSAKEKGKFEDMAKADKARYEREMKTYI
0.00261 s⁻¹

Provenance of the data: paper PMC5191963
